# TEST TARGET: Listeriolysin regulatory protein (Listeria monocytogenes serovar 1/2a (strain ATCC BAA-679 / EGD-e))
# ASSAY PROTOCOL: Inhibition of PrfA in Listeria monocytogenes EGD-e assessed as downregulation of ActA expression at 1 uM by Western blot method
Activity calls are given as the source filed them. The calls are words filed in the database; no cut-off is given here.
Write down the outcome that applies. Available outcomes: y (active), n (inactive)

{"columns": ["COMPOUND", "CLASSIFICATION"],
 "data": [
  ["Cc1ccc(Cc2cc(=O)n3c(c2N(C)C)SCC3C(=O)O)c2ccccc12 (racemic; form 1)", "y"],
  ["Cc1cccc(Cc2cc(=O)n3c(c2N(C)C)SCC3C(=O)O)c1C (racemic)", "y"],
  ["CN(C)c1c(Cc2cccc3ccccc23)cc(=O)n2c1SCC2C(=O)O.Cl (racemic)", "y"]
]}

Query: In this assay, the call recorded for O=C(O)[C@@H]1CSc2c(C3CC3)c(Cc3cccc4ccccc34)cc(=O)n21 was what?
Reply: y

Query: Same question, COc1c(Cc2cccc3ccccc23)cc(=O)n2c1SCC2C(=O)O (racemic) this time
Reply: n

Each recorded value in this set is attributed to ChEMBL document CHEMBL4177765.
